Test system: brain-specific receptors (tritiated benzodiazepine binding, P2-synaptosomal fraction of rat whole cortex)
procedure.details: Inhibition of the binding of 3H-benzodiazepine to brain-specific receptors of rats
Parameters: species or system Male albino rats (Wistar strain)
test.context: 3H-diazepam (1.5 nM) or 3H-flunitrazepam (1.0 nM), pH 7.4, 30 minutes in ice; test concentration not given
metric.name: % Inhibition of the binding of 3H-benzodiazepine (%)
Answers are plain numbers, in %.

The cases that follow already have their % Inhibition of the binding of 3H-benzodiazepine on record.
> print(dat)
                           smiles.structure  experimental.value
1  N#Cc1c(N2CCN(CCO)CC2)nn2c(-c3cccc(C(F)(F)F)c3)ccnc12                  41
2  N#Cc1c(N2CCN(Cc3cccc(Cl)c3)CC2)nn2c(-c3cccnc3)ccnc12                  12
3  N#Cc1c(N2CCN(Cc3cccc(Cl)c3)CC2)nn2c(-c3cccc(C(F)(F)F)c3)ccnc12                  33
4  N#Cc1c(N2CCN(CCCCOc3ccccc3)CC2)nn2c(-c3cccnc3)ccnc12                  33
5  NC(=O)c1c(N2CCN(Cc3ccccc3)CC2)nn2c(-c3cccc(C(F)(F)F)c3)ccnc12                  14

Below is a list of molecules. For each, state its recorded % Inhibition of the binding of 3H-benzodiazepine.
1. COc1cccc(CN2CCN(c3nn4c(-c5cccnc5)ccnc4c3C#N)CC2)c1.Cl
2. N#Cc1c(N2CCN(Cc3c(Cl)cccc3Cl)CC2)nn2c(-c3cccc(C(F)(F)F)c3)ccnc12
3. COc1ccc(CN2CCN(c3nn4c(-c5cccc(C(F)(F)F)c5)ccnc4c3C#N)CC2)cc1
4. N#Cc1c(N2CCC(Cc3ccccc3)CC2)nn2c(-c3cccc(C(F)(F)F)c3)ccnc12
5. N#Cc1c(N2CCN(CCCCOc3ccccc3)CC2)nn2c(-c3cccc(C(F)(F)F)c3)ccnc12
6. N#Cc1c(N2CCN(Cc3ccc(Cl)cc3)CC2)nn2c(-c3cccc(C(F)(F)F)c3)ccnc12

A.
1: 18; 2: 22; 3: 18; 4: 46; 5: 26; 6: 15

Kindly give each listed record's % Inhibition of the binding of 3H-benzodiazepine.
1. N#Cc1c(N2CCCCC2)nn2c(-c3cccnc3)ccnc12
2. N#Cc1c(N2CCN(CCO)CC2)nn2c(-c3cccnc3)ccnc12

A.
1: 14; 2: 25
